Values from patent US5965605A

PROTOCOL TEXT: Pharmacokinetic studies in rats
Assay type: in vivo
MEASUREMENT PARAMETERS: blood, iv; rat, 10 mg/kg I.V.; 30 minute
MEASUREMENT KIND: concentration at 0.5 h (ng/mL)

COMPOUND	RESULT NUMBER
O=C(O)c1c(Cl)c(Cl)c(Cl)c(Cl)c1-c1c2cc(I)c(=O)c(I)c-2oc2c(I)c(O)c(I)cc12 (single isomer, unassigned)	902

====

PROTOCOL TEXT: Pharmacokinetic studies in rats
Assay type: in vivo
MEASUREMENT PARAMETERS: blood, iv; rat, 10 mg/kg I.V.; 15 minute
MEASUREMENT KIND: concentration at 0.25 h (ng/mL)

COMPOUND	MEASUREMENT KIND	RESULT NUMBER
O=C(O)c1c(Cl)c(Cl)c(Cl)c(Cl)c1-c1c2cc(I)c(=O)c(I)c-2oc2c(I)c(O)c(I)cc12 (single isomer, unassigned)	concentration at 0.25 h	2510

====

PROTOCOL TEXT: Pharmacokinetic studies in rats
Type: in vivo
MEASUREMENT PARAMETERS: blood, iv; rat, 10 mg/kg I.V.; 240 minute
MEASUREMENT KIND: concentration at 4 h (ng/mL)

MOLECULE	MEASUREMENT KIND	RESULT NUMBER
O=C(O)c1c(Cl)c(Cl)c(Cl)c(Cl)c1-c1c2cc(I)c(=O)c(I)c-2oc2c(I)c(O)c(I)cc12 (single isomer, unassigned) [Compound 1]	concentration at 4 h	512

====

PROTOCOL TEXT: Pharmacokinetic studies in rats
Assay type: in vivo
MEASUREMENT PARAMETERS: blood, iv; rat, 10 mg/kg I.V.; 120 minute
MEASUREMENT KIND: concentration at 2 h (ng/mL)

COMPOUND	RESULT NUMBER
O=C(O)c1c(Cl)c(Cl)c(Cl)c(Cl)c1-c1c2cc(I)c(=O)c(I)c-2oc2c(I)c(O)c(I)cc12 (single isomer, unassigned)	625

====

SUBJECT OF TEST: human IgE / soluble FcεRI α (Fc-FcεRIα fusion protein)
PROTOCOL TEXT: Protein-based IgE-FcεRI binding assay (ELISA)
Mark each entry 1 if its IC50, inhibition of IgE/FcεRI binding sits below 0.8 µg/mL, and 0 for all others.

COMPOUND	SUBJECT OF TEST	ASSIGNED LABEL
O=C(O)c1c(Cl)c(Cl)c(Cl)c(Cl)c1-c1c2cc(I)c(=O)c(I)c-2oc2c(I)c(O)c(I)cc12 (single isomer, unassigned) [Compound 1]	human IgE / soluble FcεRI α (Fc-FcεRIα fusion protein)	1
O=C(O)c1c(Cl)ccc(Cl)c1-c1c2cc(I)c(=O)c(I)c-2oc2c(I)c(O)c(I)cc12 [Compound 5]	human IgE / soluble FcεRI α (Fc-FcεRIα fusion protein)	1
O=C(O)c1c(Cl)c(Cl)c(Cl)c(Cl)c1-c1c2ccc(=O)c(O)c-2oc2c(O)c(O)ccc12 [Compound 6]	human IgE / soluble FcεRI α (Fc-FcεRIα fusion protein)	1
O=C(O)c1c(Cl)c(Cl)c(Cl)c(Cl)c1-c1c2cc(I)c(=O)c(I)c-2oc2c(I)c(O)c(I)cc12 (single isomer, unassigned) [Compound 2]	human IgE / soluble FcεRI α (Fc-FcεRIα fusion protein)	1
CCOC(=O)c1c(Cl)c(Cl)c(Cl)c(Cl)c1-c1c2cc(Br)c(=O)c(Br)c-2oc2c(Br)c(O)c(Br)cc12 [Compound 3]	human IgE / soluble FcεRI α (Fc-FcεRIα fusion protein)	0
O=c1c(Br)cc2c(-c3ccccc3S(=O)(=O)O)c3cc(Br)c(O)c(O)c3oc-2c1O [Compound 8]	human IgE / soluble FcεRI α (Fc-FcεRIα fusion protein)	1
COC(=O)c1ccccc1-c1c2cc(Br)c(=O)c(Br)c-2oc2c(Br)c(O)c(Br)cc12 [Compound 7]	human IgE / soluble FcεRI α (Fc-FcεRIα fusion protein)	0
